Test system: SNB-75 CNS
Experiment: NCI-60 one-dose screen, 48 h (100 = growth as untreated, 0 = no growth, -100 = all killed)
Details: 10 µM unless noted
About 83,000 compounds went through this panel and 20% of them were active in at least one assay; those are over-represented in the sample as a whole.
growth overview
readout: growth (%)

>>> observed_value("COc1cc(CO)cc2cc3ccccc3nc12")
74.7
>>> observed_value("COc1ccc(NC(=O)Nc2ccccc2CNc2nc(Nc3ccc(OCCN4CCCC4)cc3)ncc2Cl)cc1")
-47.8
>>> observed_value("Cc1cc(N2CCN(CC(=O)Nc3ccc4c(ccn4Cc4ccccc4)c3)CC2)nc(N2CCCCCC2)n1")
66.6
